growth inhibition values by entry
assay: NCI Yeast Anticancer Drug Screen. Data for the sgs1 mgt1 strain (AID 161);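 also: 0% = growth of cultures given vehicle only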; conditions: S. cerevisiae sgs1 mgt1 strain, at 50.0 µM (retest, dose inferred, filed as 5.0), active compounds read high
About 79,000 compounds went through this panel and 15% of them were active in at least one assay; those are over-represented in the sample as a whole.
Value expressed in %; do not type the unit.

Worked cases, growth inhibition given:
In [3]: df
Out[3]:
                                   molecule       test_readout  numeric_value
0         COc1ccc(/C=C/c2ccnc3ccccc23)cc1OC  growth inhibition             98
1  C=C1CC[C@@H]2C(C)(C)C(O)CCC2(C)C1COc1ccc2ccc(=O)oc2c1 (stereo not given in full)  growth inhibition             92

Task: growth inhibition lookup needed for `C=CCNCCC1CCCCCC1` , thanks.
Result: 98

Task: growth inhibition lookup needed for COc1ccccc1NC(=O)C1=CNC(C)=C(C(=O)Nc2ccccc2OC)C1/C=C/c1ccccc1 (stereo not given) , thanks.
Result: 17

Task: growth inhibition lookup needed for `O=C1NC(c2ccccc2)(c2ccccc2)C(=O)N1SC(Cl)(Cl)Cl` , thanks.
Result: 99

Task: growth inhibition lookup needed for `COc1ccc(CN2COc3c(cc(C)c4cccnc34)C2)cc1` , thanks.
Result: 92

Task: growth inhibition lookup needed for CCCC(C(=O)OCCN1CCCC1(C)C)C1CCCC1 (stereo not given) , thanks.
Result: 58

Task: growth inhibition lookup needed for `CC(=O)OC[C@@]1(C)[C@@H]2CC[C@]3(C)[C@H](C(=O)C=C4[C@@H]5CC(C)(C)CC[C@]5(C(=O)O)CC[C@]43C)[C@@]2(C)CC[C@@H]1OC(C)=O` , thanks.
Result: 88

Task: growth inhibition lookup needed for `CCCCCCCCCCCCCCCCOc1ccc(S(=O)(=O)N/N=c2/sc3ccc(S(=O)(=O)O)cc3n2C)cc1C(=O)O` , thanks.
Result: 76

Task: growth inhibition lookup needed for `COc1ccc(C=C(C(=O)c2ccccc2)C(=O)c2ccccc2)cc1` , thanks.
Result: 94

###

assay: NCI Yeast Anticancer Drug Screen. Data for the cln2 rad14 strain (AID 165);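 also: 0% = growth equal to vehicle treated cultures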; conditions: S. cerevisiae cln2 rad14 strain, at 50.0 µM, active compounds read high
Compounds without any hit were thinned out: in the full panel of roughly 79,000, 15% have a hit.
Test Readout: growth inhibition (%)
Value expressed in %; do not type the unit.

Worked cases, growth inhibition given:
Compound	Numeric Value
CC(C)(S[S-])S[S-].[Ti].[c-]1[c-][c-][cH-][c-]1.[c-]1[c-][c-][cH-][c-]1	21.7
O=C(C(/C=N\C(=S)Nc1ccccc1Cl)=C(/O)c1ccccc1)c1ccccc1	98.4
Cc1ccccc1N=Nc1c(C)nn(C(N)=S)c1-c1ccccc1	-4.5
COc1cc2c(cc1OC)C(C)N(C)c1c-2c(OC(C)=O)cc2cc(OC)c(OC)cc12 (stereo unspecified)	19.6
Cc1cc(OC(=O)CCl)ccc1C(C)(C)C	5.5
C/C=C/C=C\C1OC(O)([C@H](CC)C(=O)NC/C=C/C=C(\C)[C@H](OC)C(C)C2OC(\C=C/C=C/C=C(\C)C(=O)c3c(O)ccn(C)c3=O)[C@H](O)[C@@H]2O)C(O)C(O)C1(C)C (stereo partly specified)	26.9

Task: growth inhibition lookup needed for `C=C1CC[C@H]2C(C)=CC[C@@H]3[C@H](OC(=O)[C@H]3CN3CCN(c4ccc(C)c([N+](=O)[O-])c4)CC3)[C@@H]12` , thanks.
Result: 63

Task: growth inhibition lookup needed for `COc1ccc2c(c1)Cc1cc(NC(=O)N(CCCl)N=O)ccc1-2` , thanks.
Result: -0.85

Task: growth inhibition lookup needed for `OC/C(=C\c1ccccc1Br)c1ccccc1Br` , thanks.
Result: 97.5

Task: growth inhibition lookup needed for OC(CBr)c1c(Br)ccc2ccccc12 (stereo unspecified) , thanks.
Result: 32.9

Task: growth inhibition lookup needed for `CCOc1ccc(Nc2nc(C)c(C(=O)/C=C/c3ccc(Cl)cc3Cl)s2)cc1` , thanks.
Result: 48.4

Task: growth inhibition lookup needed for `CC/C(=C(/CC)c1ccc([O-])cc1)c1ccc([O-])cc1.CC/C(=C(\CC)c1ccc([O-])cc1)c1ccc([O-])cc1.O=C([CH-]C(=O)c1ccccc1)c1ccccc1.O=C([CH-]C(=O)c1ccccc1)c1ccccc1.O=C([CH-]C(=O)c1ccccc1)c1ccccc1.O=C([CH-]C(=O)c1ccccc1)c1ccccc1.[Ti+4].[Ti+4]` , thanks.
Result: 80

Task: growth inhibition lookup needed for `NC(N)=NS(=O)(=O)c1ccc(N=Cc2c3ccccc3nc3cc(Cl)ccc23)cc1` , thanks.
Result: 91.5

###

Assay: NCI Yeast Anticancer Drug Screen. Data for the mec2-1 strain (AID 157)
Settings: S. cerevisiae mec2-1 strain, at 5.0 µM (retest, dose inferred, filed as 0.5), active compounds read high
Method: Growth inhibition of yeast strains with defined genetic alterations is measured as a screen for potential anti-cancer activity. Selected strains with alterations in DNA damage repair or cell cycle control were exposed to compounds and growth inhibition was measured relative to vehicle treated controls. The strain used in this assay is mec2-1
This is part of a sample that, as a whole, favours compounds with a hit. Of some 79,000 tested, about 15% had one in any assay.
growth inhibition values by entry
Value expressed in %; do not type the unit.

                                   molecule       test_readout  measurement_unit  numeric_value
0                  COCCn1cc(F)c(=O)[nH]c1=O  growth inhibition                 %              0
1  Cc1cc(C)nc(NS(=O)(=O)c2ccc(Nc3c4ccccc4nc4c(C(=O)NC(CO)(CO)CO)cccc34)cc2)n1  growth inhibition                 %              4
2  COC(=O)C1(Cc2ccccc2)Cc2c(C)ccc(C)c2C1=O (stereo unspecified)  growth inhibition                 %             -3
3          COc1cccc(OC)c1C(=O)/C=C/c1ccccc1  growth inhibition                 %             -1
4  S=C(NCc1ccccc1)[S][Sb]([S]C(=S)NCc1ccccc1)[c]1ccccc1  growth inhibition                 %              2
5  C=C1CC(COc2ccc3c(C)cc(=O)oc3c2)(c2ccccc2)OC1=O (stereo unspecified)  growth inhibition                 %             -6
6                          S=C1NCCNC(=S)SS1  growth inhibition                 %              8
7  CC(C)COC(=O)C1C2C=CC(CC2)C1C(=O)OCC(C)C (stereo unspecified)  growth inhibition                 %             -4

Task: growth inhibition lookup needed for OC1OCC(OCc2ccccc2)C(OCc2ccccc2)C1OCc1ccccc1 (stereo unspecified) , thanks.
Result: -25

Task: growth inhibition lookup needed for CC(NC(=O)C(NC(=O)C(NC(=O)C(F)(F)F)C(C)C)C(C)C)C(=O)Oc1c(Cl)c(Cl)c(Cl)c(Cl)c1Cl (stereo unspecified) , thanks.
Result: 6

Task: growth inhibition lookup needed for CC(SC1=CC(=O)c2c(O)ccc(O)c2C1=O)C(=O)O (stereo unspecified) , thanks.
Result: -4

###

assay: NCI Yeast Anticancer Drug Screen. Data for the mec2-1 strain (AID 157); settings: S. cerevisiae mec2-1 strain, at 50.0 µM, active compounds read high
The panel holds about 79,000 compounds, 15% with a hit somewhere; the sample as a whole holds those more often. Active and inactive are the calls of the source. Cut-off read from the data, not from the text of the source: active = growth inhibition above about 70%; inactive = the rest.
Test Readout: growth inhibition

>>> df
                                   compound             result
0   O=P(C(=S)Nc1ccccc1Cl)(c1ccccc1)c1ccccc1     90.5% (active)
1  CCCC/C(=N/Nc1ccc([N+](=O)[O-])cc1)C(=O)O   24.3% (inactive)
2  C/C(=N\Nc1n[nH]c(=S)n1N)c1c(O)cc(C)oc1=O   12.1% (inactive)
3               CN1C(C)(C)CC(O)(C#N)CC1(C)C     99.7% (active)
4  COc1ccc(C2=C/C(=C3\C(=O)Oc4ccccc4C3=O)SS2)cc1   -1.6% (inactive)
5  CCCCOCN(CC(CC)CCCC)CC(CC)CCCC (configuration not stated)   12.8% (inactive)
6                       COC(CO)(OC)c1ccccc1   -2.9% (inactive)
7       CCOC(=O)c1nc(SC)sc1NC(=O)c1ccccc1Cl  -15.6% (inactive)

Task: growth inhibition lookup needed for `Clc1ccccc1C=Nc1cccc2ccccc12` , thanks.
Result: 32.4% (inactive)

Task: growth inhibition lookup needed for `CCn1c(C)cc(=O)n1-c1ccc([N+](=O)[O-])cc1` , thanks.
Result: 17.4% (inactive)

Task: growth inhibition lookup needed for C=C1CC(Cn2cc(Br)c(=O)[nH]c2=O)(c2ccc(Br)cc2)OC1=O (configuration not stated) , thanks.
Result: 98.7% (active)

Task: growth inhibition lookup needed for N#CC1(C#N)C2C=CC(C3CCC=C32)C1(C#N)C#N (configuration not stated) , thanks.
Result: 45.3% (inactive)
